Test system: T-47D spheroids with HUVEC/MSC, viability
Experiment: Anticancer human tumor T-47D cell line growth inhibition [PI3K]; active = viability on the fitted dose curve at most 10% of control; inactive = the rest;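 note: spheroids exposed to agents for seven days before reading; percent of DMSO vehicle control luminescence so 100% = untreated growth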
Details: second compound 3.16 µM; first compound 0.1 µM
Tick one outcome: active, inactive

Known results for molecules:
molecule | label.value
CC1(C)CCC(Nc2ncc(C(F)(F)F)c(-c3c[nH]c4c(P(C)(C)=O)c(C#N)ccc34)n2)CN1 (configuration not stated) + Cc1nc(NC(=O)N2CCCC2C(N)=O)sc1-c1ccnc(C(C)(C)C(F)(F)F)c1 | inactive
C=CC(=O)N1CCN(c2nc(=O)n(-c3c(C)ccnc3C(C)C)c3nc(-c4c(O)cccc4F)c(F)cc23)C(C)C1 (configuration not stated) + CC(Nc1ncnc2nc[nH]c12)c1cc2cccc(Cl)c2c(=O)n1-c1ccccc1 | inactive
Cn1nccc1Nc1nccc(-c2ccn(C(CO)c3ccc(Cl)c(F)c3)c(=O)c2)n1 (configuration not stated) + CC(Nc1ncnc2nc[nH]c12)c1cc2cccc(Cl)c2c(=O)n1-c1ccccc1 | inactive
C#Cc1c(F)ccc2cc(O)cc(-c3ncc4c(N5CC6CCC(C5)N6)nc(OCC56CCCN5CC(F)C6)nc4c3F)c12 (configuration not stated) + Cc1nc(NC(=O)N2CCCC2C(N)=O)sc1-c1ccnc(C(C)(C)C(F)(F)F)c1 | inactive
Cn1ncc(Cl)c1-c1cc(C(=O)NC(CN)Cc2cccc(F)c2)sc1Cl (configuration not stated) + CC(Nc1ncnc2nc[nH]c12)c1cc2cccc(Cl)c2c(=O)n1-c1ccccc1 | inactive
C[C@@H](NC(=O)c1ncnc(N)c1Cl)c1ncc(C(=O)Nc2cc(C(F)(F)F)c(Cl)cn2)s1 + Cc1nc(NC(=O)N2CCCC2C(N)=O)sc1-c1ccnc(C(C)(C)C(F)(F)F)c1 | inactive
Cn1ncc(Cl)c1-c1cc(C(=O)NC(CN)Cc2cccc(F)c2)sc1Cl (configuration not stated) + Cc1nc(NC(=O)N2CCCC2C(N)=O)sc1-c1ccnc(C(C)(C)C(F)(F)F)c1 | inactive
CC1(C)CCC(Nc2ncc(C(F)(F)F)c(-c3c[nH]c4c(P(C)(C)=O)c(C#N)ccc34)n2)CN1 (configuration not stated) + CC(Nc1ncnc2nc[nH]c12)c1cc2cccc(Cl)c2c(=O)n1-c1ccccc1 | inactive

Enquiry: For CC(C)NCC(C(=O)N1CCN(c2ncnc3c2C(C)CC3O)CC1)c1ccc(Cl)cc1 (configuration not stated) + Cc1nc(NC(=O)N2CCCC2C(N)=O)sc1-c1ccnc(C(C)(C)C(F)(F)F)c1 , which call appears in the assay record?
Return: inactive

Enquiry: For Cn1ncnc1[C@H]1c2n[nH]c(=O)c3cc(F)cc(c23)N[C@@H]1c1ccc(F)cc1 + CC(Nc1ncnc2nc[nH]c12)c1cc2cccc(Cl)c2c(=O)n1-c1ccccc1 , which call appears in the assay record?
Return: inactive

Enquiry: For C=CC(=O)N1CCN(c2nc(=O)n(-c3c(C)ccnc3C(C)C)c3nc(-c4c(O)cccc4F)c(F)cc23)C(C)C1 (configuration not stated) + Cc1nc(NC(=O)N2CCCC2C(N)=O)sc1-c1ccnc(C(C)(C)C(F)(F)F)c1 , which call appears in the assay record?
Return: inactive

Enquiry: For CC(Cn1ccc(-c2ccc(C#N)c(Cl)c2)n1)NC(=O)c1cc(C(C)O)[nH]n1 (configuration not stated) + CC(Nc1ncnc2nc[nH]c12)c1cc2cccc(Cl)c2c(=O)n1-c1ccccc1 , which call appears in the assay record?
Return: inactive

Enquiry: For C[C@@H](NC(=O)c1ncnc(N)c1Cl)c1ncc(C(=O)Nc2cc(C(F)(F)F)c(Cl)cn2)s1 + CC(Nc1ncnc2nc[nH]c12)c1cc2cccc(Cl)c2c(=O)n1-c1ccccc1 , which call appears in the assay record?
Return: inactive

Enquiry: For CC(=O)c1c(C)c2cnc(Nc3ccc(N4CCNCC4)cn3)nc2n(C2CCCC2)c1=O + Cc1nc(NC(=O)N2CCCC2C(N)=O)sc1-c1ccnc(C(C)(C)C(F)(F)F)c1 , which call appears in the assay record?
Return: inactive

Enquiry: For CC(Cn1ccc(-c2ccc(C#N)c(Cl)c2)n1)NC(=O)c1cc(C(C)O)[nH]n1 (configuration not stated) + Cc1nc(NC(=O)N2CCCC2C(N)=O)sc1-c1ccnc(C(C)(C)C(F)(F)F)c1 , which call appears in the assay record?
Return: inactive

Enquiry: For CC(C)NCC(C(=O)N1CCN(c2ncnc3c2C(C)CC3O)CC1)c1ccc(Cl)cc1 (configuration not stated) + CC(Nc1ncnc2nc[nH]c12)c1cc2cccc(Cl)c2c(=O)n1-c1ccccc1 , which call appears in the assay record?
Return: inactive

Enquiry: For CC1(C)CCC(CN2CCN(c3ccc(C(=O)NS(=O)(=O)c4ccc(NCC5CCOCC5)c([N+](=O)[O-])c4)c(Oc4cnc5[nH]ccc5c4)c3)CC2)=C(c2ccc(Cl)cc2)C1 + Cc1nc(NC(=O)N2CCCC2C(N)=O)sc1-c1ccnc(C(C)(C)C(F)(F)F)c1 , which call appears in the assay record?
Return: inactive

Enquiry: For CC(C)n1nc(-c2ccc3oc(N)nc3c2)c2c(N)ncnc21 + CC(Nc1ncnc2nc[nH]c12)c1cc2cccc(Cl)c2c(=O)n1-c1ccccc1 , which call appears in the assay record?
Return: inactive

Enquiry: For CC(C)n1nc(-c2ccc3oc(N)nc3c2)c2c(N)ncnc21 + Cc1nc(NC(=O)N2CCCC2C(N)=O)sc1-c1ccnc(C(C)(C)C(F)(F)F)c1 , which call appears in the assay record?
Return: active

Enquiry: For CNC(=O)c1ccc(N2C(=S)N(c3ccc(C#N)c(C(F)(F)F)c3)C(=O)C2(C)C)cc1F + CC(Nc1ncnc2nc[nH]c12)c1cc2cccc(Cl)c2c(=O)n1-c1ccccc1 , which call appears in the assay record?
Return: inactive

Enquiry: For CC(=O)c1c(C)c2cnc(Nc3ccc(N4CCNCC4)cn3)nc2n(C2CCCC2)c1=O + CC(Nc1ncnc2nc[nH]c12)c1cc2cccc(Cl)c2c(=O)n1-c1ccccc1 , which call appears in the assay record?
Return: inactive

Enquiry: For C#Cc1c(F)ccc2cc(O)cc(-c3ncc4c(N5CC6CCC(C5)N6)nc(OCC56CCCN5CC(F)C6)nc4c3F)c12 (configuration not stated) + CC(Nc1ncnc2nc[nH]c12)c1cc2cccc(Cl)c2c(=O)n1-c1ccccc1 , which call appears in the assay record?
Return: inactive

====

Test system: T-47D spheroids with HUVEC/MSC, viability
Assay: Anticancer human tumor T-47D cell line growth inhibition [PI3K];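 note: spheroids exposed to agents for seven days before reading; percent of DMSO vehicle control luminescence so 100% = untreated growth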
Conditions: second compound 0.1 µM; first compound 1 µM; stronger effect = lower value
This listing pairs compounds with measured viability, T/C.
Report the figure in % without appending any unit label.

Record excerpt, results attached:
compound | scale.unit | viability, T/C
CNC(=O)c1ccc(N2C(=S)N(c3ccc(C#N)c(C(F)(F)F)c3)C(=O)C2(C)C)cc1F + CC(Nc1ncnc2nc[nH]c12)c1cc2cccc(Cl)c2c(=O)n1-c1ccccc1 | % | 99.9
CC(Cn1ccc(-c2ccc(C#N)c(Cl)c2)n1)NC(=O)c1cc(C(C)O)[nH]n1 (stereo not given) + Cc1nc(NC(=O)N2CCCC2C(N)=O)sc1-c1ccnc(C(C)(C)C(F)(F)F)c1 | % | 90.9
CC1(C)CCC(CN2CCN(c3ccc(C(=O)NS(=O)(=O)c4ccc(NCC5CCOCC5)c([N+](=O)[O-])c4)c(Oc4cnc5[nH]ccc5c4)c3)CC2)=C(c2ccc(Cl)cc2)C1 + CC(Nc1ncnc2nc[nH]c12)c1cc2cccc(Cl)c2c(=O)n1-c1ccccc1 | % | 83.7
Cn1ncc(Cl)c1-c1cc(C(=O)NC(CN)Cc2cccc(F)c2)sc1Cl (stereo not given) + CC(Nc1ccc2c(c1)OCCn1cc(N3C(=O)OCC3C(F)F)nc1-2)C(N)=O | % | 55.6

From here, focus on the item given below.
Briefly, viability, T/C measured for C[C@@H](NC(=O)c1ncnc(N)c1Cl)c1ncc(C(=O)Nc2cc(C(F)(F)F)c(Cl)cn2)s1 + COc1c(OCCCN2CCOCC2)ccc2c3n(c(=NC(=O)c4cnc(N)nc4)nc12)CCN3 : 38.4

====

Test system: T-47D spheroids with HUVEC/MSC, viability
Test: Anticancer human tumor T-47D cell line growth inhibition [PI3K];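 note: spheroids exposed to agents for seven days before reading; percent of DMSO vehicle control luminescence so 100% = untreated growth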
Conditions: second compound 3.16 µM; first compound 0.1 µM; stronger effect = lower value
This listing pairs compounds with measured viability, T/C.
Report the figure in % without appending any unit label.

Param item: Cn1ncnc1[C@H]1c2n[nH]c(=O)c3cc(F)cc(c23)N[C@@H]1c1ccc(F)cc1 + Cc1nc(NC(=O)N2CCCC2C(N)=O)sc1-c1ccnc(C(C)(C)C(F)(F)F)c1 ; param system: T-47D spheroids with HUVEC/MSC, viability; output viability, T/C: 69.2

Param item: Cn1nccc1Nc1nccc(-c2ccn(C(CO)c3ccc(Cl)c(F)c3)c(=O)c2)n1 (stereo not drawn) + Cc1nc(NC(=O)N2CCCC2C(N)=O)sc1-c1ccnc(C(C)(C)C(F)(F)F)c1 ; param system: T-47D spheroids with HUVEC/MSC, viability; output viability, T/C: 70.8

Param item: CCCS(=O)(=O)Nc1ccc(F)c(C(=O)c2c[nH]c3ncc(-c4ccc(Cl)cc4)cc23)c1F + CC(Nc1ncnc2nc[nH]c12)c1cc2cccc(Cl)c2c(=O)n1-c1ccccc1 ; param system: T-47D spheroids with HUVEC/MSC, viability; output viability, T/C: 104
